tested on: Histoplasma capsulatum; assay type: cell-based
Measurement name: MIC, H. capsulatum (µg/mL)
Give the value in µg/mL but do not write µg/mL after it.

Cc1ccc(N2CCN(c3ccc(-n4cnn([C@H](C)[C@](O)(Cn5cncn5)c5ccc(F)cc5F)c4=O)cc3)CC2)cc1C [Compound 23] has a reported MIC, H. capsulatum of 0.06

O=c1n(-c2ccc(N3CCN(c4ccc([N+](=O)[O-])cc4[N+](=O)[O-])CC3)cc2)cnn1CC(O)(Cn1cncn1)c1ccc(F)cc1F (stereo not drawn) [Compound 40] has a reported MIC, H. capsulatum of 0.05

Cc1nn(CC(O)(Cn2cncn2)c2ccc(F)cc2F)c(=O)n1-c1ccc(N2CCN(c3ccc(Cl)cc3)CC2)cc1 (stereo not drawn) [Compound 46] has a reported MIC, H. capsulatum of 0.1

Cc1nn([C@H](C)[C@](O)(Cn2cncn2)c2ccc(F)cc2F)c(=O)n1-c1ccc(N2CCN(c3ccc(Cl)cc3Cl)CC2)cc1 [Compound 33] has a reported MIC, H. capsulatum of 0.12

Ref: patent US6670363B1
